Data origin, for the record: patent US20250282714A1

Test system: MALAT1 triple helix
Test: RNase A enzymatic degradation assay
Assay type: biochemical, human
Details: 5-minute time point, relative to DMSO control
Experimental: The procedure was adapted from a published protocol for exonucleolytic enzymatic degradation assay. (Donlic A, et al. (2020) Nucleic Acids Res. 48(14):7653-7664). […] RNase A enzyme (ThermoFisher) was diluted to 1.46 nM and incubated with 1 M NaCl for 30-35 minutes to achieve ssRNA selectivity as reported. […] Reactions were analyzed on pre-cast 15% PAGE-Urea gels (Invitrogen) in 1×TBE buffer. […] Gel band intensity of the MALAT1 triple helix and DNA loading control were quantified using ImageJ software. […]
QUANTITY_NAME: stabilizer / destabilizer classification by RNase A degradation

# COMPOUND, VAL
rows = [
    ("N=C(N)c1ccc(/N=N/Nc2ccc(C(=N)N)cc2)cc1 [DMZ-P0, diminazene, reference compound]", "destabilizers"),
    ("N=C(NCc1ccccc1)c1cccc(/N=N/Nc2cccc(C(=N)NCc3ccccc3)c2)c1 [DMZ-M4]", "destabilizers"),
    ("CN(C)CCCNC(=N)c1ccc(/N=N/Nc2ccc(C(=N)NCCCN(C)C)cc2)cc1 [DMZ-P1]", "destabilizers"),
]

---

System: MALAT1 triple helix
Test: RiboGreen indicator displacement assay (IDA)
Assay type: binding, human
Details: RiboGreen IDA
Experimental: The protocol was adapted from a previously reported procedure. (Donlic A, et al. (2020) Nucleic Acids Res. 48(14):7653-7664). […] The plates were excited at 487 nm (8 nm slit) and emission was recorded at 530 nm (8 nm slit, focal height 11.3 mm) using a CLARIOstar plate reader (BMG labtech). […] where Y is normalized % change in fluorescence intensity, X is RNA concentration, Bottom is lowest fluorescence % change and Top is highest fluorescence % change. […]
QUANTITY_NAME: affinity for the MALAT1 triple helix (in words)

# CPD_SMILES, VAL
data = [
    ("N=C(NCCc1cccnc1)c1cccc(/N=N/Nc2cccc(C(=N)NCCc3cccnc3)c2)c1", "moderate affinity"),
    ("N=C(NCc1ccco1)c1cccc(/N=N/Nc2cccc(C(=N)NCc3ccco3)c2)c1", "moderate affinity"),
    ("CCCCNC(=N)c1ccc(/N=N/Nc2ccc(C(=N)NCCCC)cc2)cc1", "moderate affinity"),
]
